EXPERIMENTAL_SYSTEM: Hexose transporter 1 (Plasmodium falciparum)
PROTOCOL_TEXT: ST_JUDE_LEISH: Cytotoxicity at 2uM final concentration against transgenic Leishmania Mexicana promastigotes LmPfHT that are glucose transport deficient and complemented with the Plasmodium falciparum hexose transporter. Activity is measured by DNA content using SYBR green in vitro
Assay type: functional
Listed here are compounds together with their documented inhibition.
PARAMETER_MEASURED: inhibition (%)

                                    compound  parameter_measured  result_units  numeric_readout
 0  Cc1cc(F)ccc1Oc1nc(Nc2ccc(N3CCOCC3)c(F)c2)nc2c1S(=O)(=O)CCC2          inhibition             %             7.33
 1  Cc1cc(N(C)C)nc(Nc2ccc(NC(=O)c3ccc(Br)o3)cc2)n1          inhibition             %             9.85
 2  CCOc1ccc(C=CC(=O)Nc2ccc3nc(N4CCOCC4)cc(C)c3c2)cc1OC          inhibition             %             9.63
 3  COc1ccc(C2C(C(=O)Nc3ccc(C)c(F)c3)c3cc(OC)c(OC)cc3C(=O)N2C)cc1 (stereo not given)          inhibition             %             3.41
 4        COc1cccc(Nc2nc(C)cc(NC3CCCC3)n2)c1          inhibition             %             9.71
 5     COc1cc2ncnc(Nc3ccc(Br)c(Cl)c3)c2cc1OC          inhibition             %             5.81
 6  COc1ccc(C2CC(c3cccs3)=NN2C(=O)c2ccccc2)cc1OC (stereo not given)          inhibition             %             1.98
 7  O=S(=O)(NCCN1CCCC1)c1cccc(-c2cccc(CNCCc3cccs3)c2)c1          inhibition             %               12
 8  CC(C)COc1ccc(Cl)cc1Cc1ccc(-c2nc3ccc(F)cc3[nH]2)o1          inhibition             %             0.95
 9     O=C(NCCCNc1ccnc2cc(Cl)ccc12)c1ccccc1F          inhibition             %             3.35
10  O=C(C=Cc1ccc(Cl)c(Cl)c1)NCCCCCN1CCCC(CCCNC(=O)C2CC2c2ccccc2)C1 (stereo not given)          inhibition             %             0.94
11  CCN(CCCN1CCCCC1)c1cc(C)nc(Nc2ccc(Cl)cc2)n1          inhibition             %              2.6
12                NC(=O)c1c(Cl)nc2ccccc2c1Cl          inhibition             %             4.69
13  COc1ccc2nccc([C@@H](O)CN3CCC(NCCNc4ccccn4)CC3)c2c1          inhibition             %             9.69
14  COc1ccc(CN2CCN(Cc3cc(Cl)ccc3O)CC2CCO)c(C)c1C (stereo not given)          inhibition             %             0.94
15  O=C(c1cccc(COc2ccc3c(c2)CCN(C2CCCC2)CC3)c1)N1CCN(c2ccncc2)CC1          inhibition             %             5.59
16  O=C(NC1CCCc2ccccc21)[C@@H]1CCCN1C(=O)c1ccc(O)c(-c2ccc(Cl)c(Cl)c2)c1 (stereo not given in full)          inhibition             %            -0.61
17  CN1CCN(CC(=O)Nc2cccc(-c3ccc(-c4nc5cc(C(F)(F)F)ccc5[nH]4)cc3)c2)CC1          inhibition             %             0.81
18  CNC(=O)c1ccccc1Nc1nc(Nc2ccc(C(=O)O)cc2)ncc1Cl          inhibition             %             1.77
19  COc1ccc(CNCc2ccc(-c3cccc(-c4nc5ccccc5[nH]4)c3)cc2)cc1          inhibition             %             6.56
20  Cc1ccc(NC(=O)c2ccc3ncccc3c2)cc1OC1CCN(Cc2ccsc2)C1 (stereo not given)          inhibition             %              1.3
21  CCC(=Cc1cccc([N+](=O)[O-])c1)C(=O)NCC1CCN(c2nc3cc(OC)c(OC)cc3c(=N)[nH]2)CC1          inhibition             %             7.07
22  C=CCN1C(=O)C(C(C)=O)=C(O)C1c1ccccc1 (stereo not given)          inhibition             %            -4.02
23  CN1CCC(NCc2cccc(-c3cccc(S(=O)(=O)NCc4ccccc4)c3)c2)CC1          inhibition             %            -2.65
24         CNc1cc(-c2ccc3ccnc(N)c3c2)nc(N)n1          inhibition             %             0.35
25  O=C(NCc1ccc(F)cc1)Nc1ccc(-c2cccc(-c3nc4cc(C(F)(F)F)ccc4[nH]3)c2)cc1          inhibition             %             2.38
26  O=C(NCc1cccc2ccccc12)[C@@H]1CCCN1C(=O)c1ccc(O)c(-c2ccc(Cl)c(Cl)c2)c1          inhibition             %             2.59
27  CC(C(=O)N1CCCC1)N1CCN(C(c2ccccc2)c2ccccc2)CC1 (stereo not given)          inhibition             %             2.36
28  CCOC(=O)c1cccc(NC(=O)Nc2cccc(-c3ncc(OCCCN)c4c3nc(-c3nonc3N)n4CC)c2)c1          inhibition             %             3.25
29  COc1ccc(Nc2nccc(-c3ccc4ccnc(NCCCCN)c4c3)n2)cc1          inhibition             %            -1.84
